- Tested on: T-cell
- protocol.details: Immunosuppressive activity in Balb/c mouse T cells assessed as ConA-induced cell proliferation at 10 uM after 48 hrs by MTT assay relative to control
- Type: functional
Please provide measured Activity for the entries that follow.
Numbers only, in %.

molecule	measure.name	units.label	observed.result
CC(=O)Nc1ccc(-n2nncc2COc2cc(C)c3c(c2C)[C@@H]2OC(=O)[C@@H](C)[C@@H]2CC3)cc1	Activity	%	-29.47
COc1cccc(NC(=O)[C@H](C)[C@@H]2CCc3c(C)cc(O)c(C)c3C2)c1	Activity	%	-12.63
Cc1cc(OCc2cnnn2-c2ccc(C=O)cc2)c(C)c2c1CC[C@H]1[C@H](C)C(=O)O[C@@H]21	Activity	%	-6.66
Cc1c(O)c([N+](=O)[O-])c(C)c2c1[C@@H]1OC(=O)[C@@H](C)[C@@H]1CC2	Activity	%	-1.03
Cc1cc(O)c(C)c2c1CC[C@@H]([C@@H](C)C(=O)Nc1ccc(CC#N)cc1)C2	Activity	%	-30.14

I need Activity for every entry listed below, if you could help.
1. CC(=O)OC1=C(C)C2=C3OC(=O)C(C)=C3CC[C@@]2(C)CC1
2. Cc1cc(OCc2cnnn2-c2cccc(I)c2)c(C)c2c1CC[C@H]1[C@H](C)C(=O)O[C@@H]21

Completion:
-38.23
-20

I'm hoping you can list Activity for every molecule here, please.
1. CC(=O)Oc1cc(C)c2c(c1C)C1OC(OC(C)=O)C(C)C1CC2 (stereo not given)
2. Cc1ccc(I)cc1-n1nncc1COc1cc(C)c2c(c1C)[C@@H]1OC(=O)[C@@H](C)[C@@H]1CC2
3. COc1cc(C)c2ccc([C@@H](C)C(=O)O)cc2c1C

Completion:
-26.47
-26.31
-25

Report Activity for every entry below.
1. Cc1cc(OCc2cnnn2-c2ccc3c(c2)OCO3)c(C)c2c1CC[C@H]1[C@H](C)C(=O)O[C@@H]21
2. CCOC(=O)[C@H](C)c1ccc2c(C)cc(OC)c(C)c2c1

Completion:
1. -45.26
2. -37.5

Fill in Activity for each of the 3 molecules listed.
1. COc1cc(-n2nncc2COc2cc(C)c3c(c2C)[C@@H]2OC(=O)[C@@H](C)[C@@H]2CC3)cc(OC)c1OC
2. COc1ccc2cc(-n3nncc3COc3cc(C)c4c(c3C)[C@@H]3OC(=O)[C@@H](C)[C@@H]3CC4)ccc2c1
3. Cc1cc(OCc2cnnn2/C=C/c2ccccc2)c(C)c2c1CC[C@H]1[C@H](C)C(=O)O[C@@H]21

Completion:
[-14.73, -95.12, -95.12]

---

- Test system: B-cell
- protocol.details: Cytotoxicity against Balb/c mouse B cells assessed as reduction in cell proliferation at 100 uM after 48 hrs by MTT assay
- Format: cell-based
measure.name: Activity

cpd.smiles	measure.name	observed.result
Cc1c(O)c([N+](=O)[O-])c(C)c2c1[C@@H]1OC(=O)[C@@H](C)[C@@H]1CC2	Activity	Toxic
CCOC(=O)[C@H](C)C1=Cc2c(C)c(O)cc(C)c2CC1	Activity	Toxic
Cc1ccc(NC(=O)[C@H](C)[C@@H]2CCc3c(C)cc(O)c(C)c3C2)cc1O	Activity	Non-Toxic
CC(=O)OC1=C(C)C2=C3OC(=O)C(C)=C3CC[C@@]2(C)CC1	Activity	Toxic
Cc1cc(O)c(C)c2c1CC[C@@H]([C@@H](C)C(=O)Nc1ccc(CC#N)cc1)C2	Activity	Toxic
COc1cccc(NC(=O)[C@H](C)[C@@H]2CCc3c(C)cc(O)c(C)c3C2)c1	Activity	Non-Toxic

Items follow; give Activity for each.
1. CC1=C(Cl)C=C[C@]2(C)CC[C@@H]3C(=C12)OC(=O)[C@H]3C
2. CCOC(=O)[C@H](C)c1ccc2c(C)cc(O)c(C=O)c2c1

Completion:
Toxic
Toxic

Activity reported for this compound Cc1cc(O)c(C)c2c1CC[C@@H]([C@@H](C)C(=O)O)C2 : Toxic

---

- Tested on: T-cell
- protocol.details: Immunostimulant activity in Balb/c mouse T cells assessed as ConA-induced cell proliferation at 1 uM after 48 hrs by MTT assay relative to control
- Format: ADME, cell-based
Please go through the items and note down their Activity.
One number for each entry, in %.

compound	assay.system	units.label	Activity
COC(=O)[C@H](C)C1=Cc2c(C)c(OC)cc(C)c2CC1	T-cell	%	11.34
Cc1ccc(NC(=O)[C@H](C)[C@@H]2CCc3c(C)cc(O)c(C)c3C2)cc1O	T-cell	%	11.53
Cc1c(O)c([N+](=O)[O-])c(C)c2c1[C@@H]1OC(=O)[C@@H](C)[C@@H]1CC2	T-cell	%	13.4

# return Activity for each item in the list
1. Cc1cc(O)c(C)c2c1CC[C@@H]([C@@H](C)C(=O)N1CCOCC1)C2
2. CCOC(=O)[C@H](C)c1ccc2c(C)cc(O)c(C=O)c2c1
3. Cc1c(N)c(O)c(C)c2c1CC[C@H]1[C@H](C)C(=O)O[C@@H]21
4. Cc1cc(O)c(C)c2c1CC[C@@H]([C@@H](C)C(=O)O)C2
5. CCOC(=O)[C@H](C)C1=Cc2c(C)c(O)cc(C)c2CC1
6. COc1cccc(NC(=O)[C@H](C)[C@@H]2CCc3c(C)cc(O)c(C)c3C2)c1

Completion:
1: 8.79; 2: 34.02; 3: 13.97; 4: 4.12; 5: 11.34; 6: 8.79

For the 3 compounds below, give their Activity values.
1. Cc1cc(O)c(C)c2c1CC[C@@H]([C@@H](C)C(=O)Nc1nccc(C)c1[N+](=O)[O-])C2
2. CC(=O)OCC(C)C1CCc2c(C)cc(OC(C)=O)c(C)c2C1O (stereo not given)
3. Cc1cc(O)c(C)c2c1CCC(C(C)CO)C2O (stereo not given)

Completion:
1: 24.72; 2: 37.11; 3: 31.18

For each listed entry, give its Activity.
1. Cc1cc(O)c(C)c2c1CCC1C2OC(O)C1C (stereo not given)
2. CCOC(=O)[C@H](C)c1ccc2c(C)cc(O)c(C)c2c1
3. COc1cc(C)c2ccc([C@@H](C)C(=O)O)cc2c1C

Completion:
1: 31.95; 2: 15.59; 3: 9.52

---

- Test system: B-cell
- protocol.details: Immunosuppressive activity in Balb/c mouse B cells assessed as LPS-induced cell proliferation at 10 uM after 48 hrs by MTT assay relative to control
- Assay type: functional
Output: class label from Activity. Mapping: label 0 (below -30%), label 1 (-30% to below -10%), label 2 (-10% or more)

Answered examples (6):
cpd.smiles	answer.label
Cc1ccc(I)cc1-n1nncc1COc1cc(C)c2c(c1C)[C@@H]1OC(=O)[C@@H](C)[C@@H]1CC2	label 1
CCOC(=O)[C@H](C)c1ccc2c(C)cc(O)c(C=O)c2c1	label 2
COc1cc(-n2nncc2COc2cc(C)c3c(c2C)[C@@H]2OC(=O)[C@@H](C)[C@@H]2CC3)cc(OC)c1OC	label 1
Cc1cc(O)c(C)c2c1CC[C@@H]([C@@H](C)C(=O)O)C2	label 2
COc1ccc2cc(-n3nncc3COc3cc(C)c4c(c3C)[C@@H]3OC(=O)[C@@H](C)[C@@H]3CC4)ccc2c1	label 1
Cc1cc(OCc2cnnn2-c2cccc(I)c2)c(C)c2c1CC[C@H]1[C@H](C)C(=O)O[C@@H]21	label 1

Prompt: Class label required: CC(=O)OC1=C(C)C2=C3OC(=O)C(C)=C3CC[C@@]2(C)CC1
Completion: label 0

Prompt: # bin label for CCOC(=O)[C@H](C)c1ccc2c(C)cc(OC)c(C)c2c1
Completion: label 1

Prompt: In plain terms, what class is Cc1cc(O)c(C)c2c1CC[C@@H]([C@@H](C)C(=O)Nc1ccc(CC#N)cc1)C2 ?
Completion: label 0

---

- Tested on: T-cell
- protocol.details: Cytotoxicity against Balb/c mouse T cells assessed as reduction in cell proliferation at 1 uM after 48 hrs by MTT assay
- Assay type: cell-based
measure.name: Activity

Some compounds with known Activity results, for comparison:
compound	observed.result
Cc1cc(O)c(C)c2c1CC[C@@H]([C@@H](C)C(=O)Nc1ccc(CC#N)cc1)C2	Toxic
Cc1c(N)c(O)c(C)c2c1CC[C@H]1[C@H](C)C(=O)O[C@@H]21	Toxic
CC1=C2[C@H]3OC(=O)[C@@H](C)[C@@H]3CC[C@@]2(C)C=CC1=O [SANTONIN]	Non-Toxic
CC(=O)OC1=C(C)C2=C3OC(=O)C(C)=C3CC[C@@]2(C)CC1	Toxic
COc1cccc(NC(=O)[C@H](C)[C@@H]2CCc3c(C)cc(O)c(C)c3C2)c1	Toxic
CCOC(=O)[C@H](C)c1ccc2c(C)cc(O)c(C)c2c1	Toxic
Cc1ccc(NC(=O)[C@H](C)[C@@H]2CCc3c(C)cc(O)c(C)c3C2)cc1O	Non-Toxic
CCOC(=O)[C@H](C)c1ccc2c(C)cc(O)c(C=O)c2c1	Toxic

So for CC1=C(Cl)C=C[C@]2(C)CC[C@@H]3C(=C12)OC(=O)[C@H]3C , the logged Activity turned out to be Toxic
